# target.under.test: human P2X2/3 receptors (Homo sapiens, UniProt P56373+Q9UBL9)
# Construct: expressed in transfected cells; host or cells: human astrocytoma 1321N1 (1312N1 [sic])
# Sequence (P56373 whole entry): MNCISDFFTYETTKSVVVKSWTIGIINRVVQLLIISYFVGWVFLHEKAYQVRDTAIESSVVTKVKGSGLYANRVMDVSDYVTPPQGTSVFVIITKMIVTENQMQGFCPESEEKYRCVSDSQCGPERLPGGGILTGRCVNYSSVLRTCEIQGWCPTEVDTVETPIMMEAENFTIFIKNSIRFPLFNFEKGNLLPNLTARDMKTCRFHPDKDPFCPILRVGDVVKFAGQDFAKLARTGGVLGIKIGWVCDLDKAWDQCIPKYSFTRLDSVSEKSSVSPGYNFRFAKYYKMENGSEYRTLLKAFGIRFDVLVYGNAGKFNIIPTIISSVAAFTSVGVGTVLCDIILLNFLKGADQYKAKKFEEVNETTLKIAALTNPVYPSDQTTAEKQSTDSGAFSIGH
# Sequence (Q9UBL9 whole entry): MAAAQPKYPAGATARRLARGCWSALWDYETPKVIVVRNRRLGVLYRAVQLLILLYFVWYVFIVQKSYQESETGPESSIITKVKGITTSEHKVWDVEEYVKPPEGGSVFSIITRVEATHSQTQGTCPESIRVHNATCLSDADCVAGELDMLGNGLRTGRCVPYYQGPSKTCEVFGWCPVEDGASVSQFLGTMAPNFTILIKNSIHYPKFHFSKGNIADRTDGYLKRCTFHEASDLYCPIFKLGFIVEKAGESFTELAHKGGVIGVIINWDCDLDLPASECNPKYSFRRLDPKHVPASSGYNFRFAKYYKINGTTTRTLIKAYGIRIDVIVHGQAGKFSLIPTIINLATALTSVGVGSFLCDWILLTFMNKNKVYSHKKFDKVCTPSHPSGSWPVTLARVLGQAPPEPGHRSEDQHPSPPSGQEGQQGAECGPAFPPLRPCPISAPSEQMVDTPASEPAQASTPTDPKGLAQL
# experiment.description: Intracellular calcium measurement, antagonist activity at human P2X2/3 receptors (hP2X23 1321N1), Fluo8
# Format: cell-based
# condition.label: ratio of column 4) hP2X2/3 to column 3) hP2X3, 1321N1
# Protocol: 3) And 4) Intracellular Calcium Measurement to Compare Antagonist Activity at Human P2X3 Receptors (hP2X3 1321N1) and at Human P2X2/3 Receptors (hP2X23 1321N1) The comparison of antagonistic activity at the P2X3 versus the P2X2/3 receptor of the compounds of the invention were performed by use of recombinant cell lines. […] The cytoplasmatic calcium transient is detected via the calcium sensitive dye Fluo8. The strength of Fluo8 fluorescence signal corresponds to the level of receptor activation. […]
outcome.measure: hP2X23/hP2X3* Selectivity (1321N1)

Given item CCc1cc2n(CC(=O)Nc3ccc(F)cn3)c3c(c(=O)n2n1)CN(C1CCOC1)C3=O (racemic) , the value recorded as its hP2X23/hP2X3* Selectivity (1321N1) is >184

Given item CCc1cc2n(CC(=O)Nc3ccc(Cl)cn3)c3c(c(=O)n2n1)CN(CC1CCOC1)C3=O (centres unmarked) , the value recorded as its hP2X23/hP2X3* Selectivity (1321N1) is >41

Given item CC(C)N1Cc2c(n(CC(=O)Nc3ccc(F)cn3)c3cc(C4CCN(C)CC4)nn3c2=O)C1=O , the value recorded as its hP2X23/hP2X3* Selectivity (1321N1) is >164

Given item CC(C)N1Cc2c(n(CC(=O)Nc3ccc(F)cn3)c3cc(C4CCN(C5CCC5)CC4)nn3c2=O)C1=O , the value recorded as its hP2X23/hP2X3* Selectivity (1321N1) is >91

Given item CCc1cc2n(CC(=O)Nc3ccc(F)cn3)c3c(c(=O)n2n1)CN(C[C@@H]1COCCN1)C3=O , the value recorded as its hP2X23/hP2X3* Selectivity (1321N1) is >43

Given item CC(C)N1Cc2c(n(CC(=O)Nc3ccc(F)cn3)c3cc(NC(=O)CO)nn3c2=O)C1=O , the value recorded as its hP2X23/hP2X3* Selectivity (1321N1) is >55

Given item CC(C)N1Cc2c(n(CC(=O)Nc3ccc(F)cn3)c3cc(C4CCNC4)nn3c2=O)C1=O.Cl (racemic) , the value recorded as its hP2X23/hP2X3* Selectivity (1321N1) is >194

Given item CCc1cc2n(CC(=O)Nc3ccc(F)cn3)c3c(c(=O)n2n1)CN(C[C@H]1CNCCO1)C3=O , the value recorded as its hP2X23/hP2X3* Selectivity (1321N1) is >34

Given item CCc1cc2n(CC(=O)Nc3ccc(F)cn3)c3c(c(=O)n2n1)CN(C[C@H]1CCCN1)C3=O , the value recorded as its hP2X23/hP2X3* Selectivity (1321N1) is >30

Given item CC(C)N1Cc2c(n(CC(=O)Nc3ccc(F)cn3)c3cc(C(=O)N4CCOCC4)nn3c2=O)C1=O , the value recorded as its hP2X23/hP2X3* Selectivity (1321N1) is >481

Given item COC[C@H](C)N1Cc2c(n(CC(=O)Nc3ccc(F)cn3)c3cc(C4CCOCC4)nn3c2=O)C1=O , the value recorded as its hP2X23/hP2X3* Selectivity (1321N1) is >758
